System: SGC-7901 cisplatin-resistant cancer cells
Experiment: MTT cytotoxicity, cisplatin-resistant SGC-7901
Format: cell-based
Conditions: cisplatin-resistant over cisplatin-sensitive IC50, SGC-7901
measured.metric: Resistant Factor, SGC-7901
Numbers only.

Past entries and their recorded results:
compound	measured.target	Resistant Factor, SGC-7901
CCCCCCCCCc1ccnc(-c2cc(CCCCCCCCC)ccn2)c1.CCCCCCCCCc1ccnc(-c2cc(CCCCCCCCC)ccn2)c1.CCCCCCCCCc1ccnc(-c2cc(CCCCCCCCC)ccn2)c1.F[P-](F)(F)(F)(F)F.F[P-](F)(F)(F)(F)F.F[P-](F)(F)(F)(F)F.[Co+3] [complex 6, [Co^III(4,4’-(C9H19)2-bpy)3](PF6)3]	SGC-7901 cisplatin-resistant cancer cells	0.99
N.N.[Cl][Pt][Cl] [Cisplatin, cis-[Pt^II(NH3)2Cl2], reference compound]	SGC-7901 cisplatin-resistant cancer cells	10.97
Cc1ccnc(-c2cc(C)ccn2)c1.Cc1ccnc(-c2cc(C)ccn2)c1.Cc1ccnc(-c2cc(C)ccn2)c1.F[P-](F)(F)(F)(F)F.F[P-](F)(F)(F)(F)F.[Co+2] [complex 1, [Co^II(4,4’-Me2-bpy)3](PF6)2]	SGC-7901 cisplatin-resistant cancer cells	1.50
COc1ccnc(-c2cc(OC)ccn2)c1.COc1ccnc(-c2cc(OC)ccn2)c1.COc1ccnc(-c2cc(OC)ccn2)c1.F[P-](F)(F)(F)(F)F.F[P-](F)(F)(F)(F)F.F[P-](F)(F)(F)(F)F.[Co+3] [complex 5, [Co^III(4,4’-(OMe)2-bpy)3](PF6)3]	SGC-7901 cisplatin-resistant cancer cells	0.96

Item: Cc1ccnc(-c2cc(C)ccn2)c1.Cc1ccnc(-c2cc(C)ccn2)c1.Cc1ccnc(-c2cc(C)ccn2)c1.F[P-](F)(F)(F)(F)F.F[P-](F)(F)(F)(F)F.F[P-](F)(F)(F)(F)F.[Co+3] [complex 2, [Co^III(4,4’-Me2-bpy)3](PF6)3] | System: SGC-7901 cisplatin-resistant cancer cells | Resistant Factor, SGC-7901: 1.14

---

Provide the recorded IC50 for the entries that follow.
Test system: A2780 cisplatin-resistant cancer cells
Experiment: MTT cytotoxicity, cisplatin-resistant A2780
Format: cell-based
Conditions: A2780 cisplatin-resistant, MTT, 72 h

// worked examples, IC50 included
compound	measured.target	measured.metric	result
Cc1ccnc(-c2cc(C)ccn2)c1.Cc1ccnc(-c2cc(C)ccn2)c1.Cc1ccnc(-c2cc(C)ccn2)c1.F[P-](F)(F)(F)(F)F.F[P-](F)(F)(F)(F)F.[Co+2] [complex 1, [Co^II(4,4’-Me2-bpy)3](PF6)2]	A2780 cisplatin-resistant cancer cells	IC50	11.2 µM
COc1ccnc(-c2cc(OC)ccn2)c1.COc1ccnc(-c2cc(OC)ccn2)c1.COc1ccnc(-c2cc(OC)ccn2)c1.F[P-](F)(F)(F)(F)F.F[P-](F)(F)(F)(F)F.F[P-](F)(F)(F)(F)F.[Co+3] [complex 5, [Co^III(4,4’-(OMe)2-bpy)3](PF6)3]	A2780 cisplatin-resistant cancer cells	IC50	27 µM
Cc1ccnc(-c2cc(C)ccn2)c1.Cc1ccnc(-c2cc(C)ccn2)c1.Cc1ccnc(-c2cc(C)ccn2)c1.F[P-](F)(F)(F)(F)F.F[P-](F)(F)(F)(F)F.F[P-](F)(F)(F)(F)F.[Co+3] [complex 2, [Co^III(4,4’-Me2-bpy)3](PF6)3]	A2780 cisplatin-resistant cancer cells	IC50	10.7 µM
CCCCCCCCCc1ccnc(-c2cc(CCCCCCCCC)ccn2)c1.CCCCCCCCCc1ccnc(-c2cc(CCCCCCCCC)ccn2)c1.CCCCCCCCCc1ccnc(-c2cc(CCCCCCCCC)ccn2)c1.F[P-](F)(F)(F)(F)F.F[P-](F)(F)(F)(F)F.F[P-](F)(F)(F)(F)F.[Co+3] [complex 6, [Co^III(4,4’-(C9H19)2-bpy)3](PF6)3]	A2780 cisplatin-resistant cancer cells	IC50	29.1 µM

Then there is this compound:
Reported IC50 ( N.N.[Cl][Pt][Cl] [Cisplatin, cis-[Pt^II(NH3)2Cl2], reference compound] ) = > 200 µM

---

Record form. Attribute: pIC50. Fill in for each entry.
Test system: HepG2 (liver cancer) cells
Assay: MTT cytotoxicity assay, HepG2
Assay type: cell-based
Details: 72 h
Answers are plain numbers, as −log10 of the molar value.

Illustrative cases are given below, each with its answer.
compound	pIC50
COc1ccnc(-c2cc(OC)ccn2)c1.COc1ccnc(-c2cc(OC)ccn2)c1.COc1ccnc(-c2cc(OC)ccn2)c1.F[P-](F)(F)(F)(F)F.F[P-](F)(F)(F)(F)F.F[P-](F)(F)(F)(F)F.[Co+3] [complex 5, [Co^III(4,4’-(OMe)2-bpy)3](PF6)3]	4.81
Cc1ccnc(-c2cc(C)ccn2)c1.Cc1ccnc(-c2cc(C)ccn2)c1.Cc1ccnc(-c2cc(C)ccn2)c1.F[P-](F)(F)(F)(F)F.F[P-](F)(F)(F)(F)F.[Co+2] [complex 1, [Co^II(4,4’-Me2-bpy)3](PF6)2]	5.13

Your task in this section: give pIC50 for each listed record.
1. CCCCCCCCCc1ccnc(-c2cc(CCCCCCCCC)ccn2)c1.CCCCCCCCCc1ccnc(-c2cc(CCCCCCCCC)ccn2)c1.CCCCCCCCCc1ccnc(-c2cc(CCCCCCCCC)ccn2)c1.F[P-](F)(F)(F)(F)F.F[P-](F)(F)(F)(F)F.F[P-](F)(F)(F)(F)F.[Co+3] [complex 6, [Co^III(4,4’-(C9H19)2-bpy)3](PF6)3]
2. Cc1ccnc(-c2cc(C)ccn2)c1.Cc1ccnc(-c2cc(C)ccn2)c1.Cc1ccnc(-c2cc(C)ccn2)c1.F[P-](F)(F)(F)(F)F.F[P-](F)(F)(F)(F)F.F[P-](F)(F)(F)(F)F.[Co+3] [complex 2, [Co^III(4,4’-Me2-bpy)3](PF6)3]

Result string:
4.59
5.26

---

Tested on: A549 (EGFR wild-type lung cancer) cells
Experiment: MTT cytotoxicity assay, A549
Assay type: cell-based
Details: 72 h
measured.metric: IC50 (µM)
Answers are plain numbers, in µM.

Take a look at these entries with their results.
molecule	IC50 [µM]
Cc1ccnc(-c2cc(C)ccn2)c1.Cc1ccnc(-c2cc(C)ccn2)c1.Cc1ccnc(-c2cc(C)ccn2)c1.F[P-](F)(F)(F)(F)F.F[P-](F)(F)(F)(F)F.F[P-](F)(F)(F)(F)F.[Co+3] [complex 2, [Co^III(4,4’-Me2-bpy)3](PF6)3]	7.86
COc1ccnc(-c2cc(OC)ccn2)c1.COc1ccnc(-c2cc(OC)ccn2)c1.COc1ccnc(-c2cc(OC)ccn2)c1.F[P-](F)(F)(F)(F)F.F[P-](F)(F)(F)(F)F.F[P-](F)(F)(F)(F)F.[Co+3] [complex 5, [Co^III(4,4’-(OMe)2-bpy)3](PF6)3]	18.6
CCCCCCCCCc1ccnc(-c2cc(CCCCCCCCC)ccn2)c1.CCCCCCCCCc1ccnc(-c2cc(CCCCCCCCC)ccn2)c1.CCCCCCCCCc1ccnc(-c2cc(CCCCCCCCC)ccn2)c1.F[P-](F)(F)(F)(F)F.F[P-](F)(F)(F)(F)F.F[P-](F)(F)(F)(F)F.[Co+3] [complex 6, [Co^III(4,4’-(C9H19)2-bpy)3](PF6)3]	82.8

Could you now consider this next molecule?
Just so you know, measured IC50 for Cc1ccnc(-c2cc(C)ccn2)c1.Cc1ccnc(-c2cc(C)ccn2)c1.Cc1ccnc(-c2cc(C)ccn2)c1.F[P-](F)(F)(F)(F)F.F[P-](F)(F)(F)(F)F.[Co+2] [complex 1, [Co^II(4,4’-Me2-bpy)3](PF6)2] came out at 9.45
